# testedOn: p53 Y220C mutant protein (amino acid residues 94-293) (Homo sapiens, UniProt P04637, Y220C)
# Construct: p53 Y220C mutant protein (amino acid residues 94-293)
# Sequence (P04637 94-293, stated change not applied): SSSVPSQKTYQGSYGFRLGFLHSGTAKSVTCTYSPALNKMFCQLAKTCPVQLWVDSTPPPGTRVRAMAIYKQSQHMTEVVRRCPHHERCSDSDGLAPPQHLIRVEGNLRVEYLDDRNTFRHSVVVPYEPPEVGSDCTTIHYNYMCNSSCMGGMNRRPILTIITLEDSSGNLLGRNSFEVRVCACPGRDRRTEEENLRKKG
# measurementNotes: Surface Plasmon Resonance (SPR) assay, Kd_kinetic
# Assay type: binding
# cond: SPR, kinetic KD, p53 Y220C; read-out: SPR P53 Y220C KD kinetic
# Procedure: Surface Plasmon Resonance (SPR) Assay Protocol SPR experiments were performed on a Biacore 8K instrument. […] The running buffer contained 50 mM Tris, pH 7.5, 100 mM NaCl, 1 mM DTT, 0.01% Brij35, 0.05% Tween-20 and 1% DMSO. The assay temperature was maintained at 16 or 20 °C and data were fit into the 1:1 binding model using the Biacore Insight Evaluation software.
pKd: −log10 of the molar value.
metric: pKd

# count of solved cases: 6
molecule | pKd
COCCN1CCC(Nc2cccn3c(CC(F)(F)F)c(C#CCNc4ccc(S(C)(=O)=O)cc4OC)nc23)CC1 [Example 113] | 7.00 to 8.00
COc1cc(C(=O)NC2CC2)ccc1NCC#Cc1nc2c(N[C@@H]3CCN(C)C[C@@H]3F)cccn2c1SC(F)(F)F [Example 86] | > 8.00
CNC(=O)c1ccc(OC)c(NCC#Cc2cc3c(N[C@@H]4CNC[C@@H]4F)nccn3c2SC(F)(F)F)n1 [Example 210] | > 8.00
CNC(=O)c1cc(OC)c(NCC#Cc2nc3c(N[C@@H]4CCN(C)C[C@@H]4F)cccn3c2CC(F)(F)F)cc1Cl [Example 111] | > 8.00
CN1CC[C@@H](Nc2cccn3c(CC(F)(F)F)c(C#C[C@@H](O)c4ccccc4)nc23)[C@@H](F)C1 [Example 72] | < 6.00
CNC(=O)c1ccc(NCC#Cc2nc3c(N[C@@H]4CCN(C)C[C@@H]4F)cccn3c2SC(F)(F)F)c(OCCOC)c1 [Example 104] | > 8.00

Now consider a different molecule.
For this molecule ( CNC(=O)c1ccc(OC)c(NCC#Cc2nc3c(N[C@H]4C[C@@H]5CC[C@@H](N5)[C@H]4F)cccn3c2SC(F)(F)F)c1 [Example 203] ), measured pKd is > 8.00
